Listed next: entries and their corresponding IC50.
# test.system: recombinant ASK1 (Homo sapiens)
# Construct: purchased Carna Biosciences
# experiment.summary: ASK1 Biochemical Assay (HTRF KinEASE-STK S3)
# study.conditions: ATP 100 μM; read-out: Biochemical Assay IC50

Please fill in: IC50 reported for CC(C)C(c1ccc(N2CCN(c3cccc(-c4nncn4C(C)C)n3)C2=O)cc1)N1CCOCC1 (centres unmarked) = < 100 nM

Please fill in: IC50 reported for CC(C)n1cnnc1-c1cccc(N2CCN(c3ccc(S(=O)(=O)N4CCOCC4)cc3)C2=O)n1 = < 100 nM

Please fill in: IC50 reported for COCCCNc1ccc(N2CCN(c3cccc(-c4nncn4C(C)C)n3)C2=O)cn1 = < 100 nM

Please fill in: IC50 reported for CC(C)n1cnnc1-c1cccc(N2CCN(c3ccc(-n4ccnc4)nc3)C2=O)n1 = < 100 nM

Please fill in: IC50 reported for CC(C)n1cnnc1-c1cccc(N2CCN(c3cccc(S(C)(=O)=O)c3)C2=O)n1 = 95 nM

Please fill in: IC50 reported for COc1cc(C)c(S(C)(=O)=O)cc1N1CCN(c2cccc(-c3nncn3C(C)C)n2)C1=O = > 1000 nM

Please fill in: IC50 reported for CC(C)n1cnnc1-c1cccc(N2CCN(c3ccc(N4CCCC4)cc3)C2=O)n1 = < 100 nM

Then this compound:
Please fill in: IC50 reported for COc1ccc(N2CCN(c3cccc(-c4nncn4C(C)C)n3)C2=O)cc1 = < 100 nM

---

# test.system: recombinant ASK1 (Homo sapiens, UniProt Q99683)
# Construct: purchased Carna Biosciences
# experiment.summary: ASK1 Biochemical Assay (HTRF KinEASE-STK S3)
# study.conditions: comparison with Selonsertib; read-out: ASK1 biochemical Assay (IC50)
test.readout: pIC50
Answer as the number alone; pIC50 is minus log10 of concentration in mol/L.

Please fill in: pIC50 reported for CNC(=O)C1CCN(c2ccc(N3CCN(c4cccc(-c5nncn5C(C)C)n4)C3=O)cc2)CC1 = 9.00

Continuing:
Please fill in: pIC50 reported for CC(C)n1cnnc1-c1cccc(N2CCN(c3ccc(N4CCOCC4)cc3)C2=O)n1 = 8.39

Please fill in: pIC50 reported for CC(C)n1cnnc1-c1cccc(N2CCN(c3ccc(N4CC(C#N)C4)cc3)C2=O)n1 = 8.42

Please fill in: pIC50 reported for CC(C)n1cnnc1-c1cccc(N2CCN(c3ccc(N4CCC(C(=O)N(C)C)CC4)cc3)C2=O)n1 = 8.42

---

Listed next: entries and their corresponding IC50.
# test.system: Human ASK1 (Homo sapiens)
# Construct: expressed in transfected cells; host or cells: HEK293T-AP1
# Sequence (Q99683 whole entry): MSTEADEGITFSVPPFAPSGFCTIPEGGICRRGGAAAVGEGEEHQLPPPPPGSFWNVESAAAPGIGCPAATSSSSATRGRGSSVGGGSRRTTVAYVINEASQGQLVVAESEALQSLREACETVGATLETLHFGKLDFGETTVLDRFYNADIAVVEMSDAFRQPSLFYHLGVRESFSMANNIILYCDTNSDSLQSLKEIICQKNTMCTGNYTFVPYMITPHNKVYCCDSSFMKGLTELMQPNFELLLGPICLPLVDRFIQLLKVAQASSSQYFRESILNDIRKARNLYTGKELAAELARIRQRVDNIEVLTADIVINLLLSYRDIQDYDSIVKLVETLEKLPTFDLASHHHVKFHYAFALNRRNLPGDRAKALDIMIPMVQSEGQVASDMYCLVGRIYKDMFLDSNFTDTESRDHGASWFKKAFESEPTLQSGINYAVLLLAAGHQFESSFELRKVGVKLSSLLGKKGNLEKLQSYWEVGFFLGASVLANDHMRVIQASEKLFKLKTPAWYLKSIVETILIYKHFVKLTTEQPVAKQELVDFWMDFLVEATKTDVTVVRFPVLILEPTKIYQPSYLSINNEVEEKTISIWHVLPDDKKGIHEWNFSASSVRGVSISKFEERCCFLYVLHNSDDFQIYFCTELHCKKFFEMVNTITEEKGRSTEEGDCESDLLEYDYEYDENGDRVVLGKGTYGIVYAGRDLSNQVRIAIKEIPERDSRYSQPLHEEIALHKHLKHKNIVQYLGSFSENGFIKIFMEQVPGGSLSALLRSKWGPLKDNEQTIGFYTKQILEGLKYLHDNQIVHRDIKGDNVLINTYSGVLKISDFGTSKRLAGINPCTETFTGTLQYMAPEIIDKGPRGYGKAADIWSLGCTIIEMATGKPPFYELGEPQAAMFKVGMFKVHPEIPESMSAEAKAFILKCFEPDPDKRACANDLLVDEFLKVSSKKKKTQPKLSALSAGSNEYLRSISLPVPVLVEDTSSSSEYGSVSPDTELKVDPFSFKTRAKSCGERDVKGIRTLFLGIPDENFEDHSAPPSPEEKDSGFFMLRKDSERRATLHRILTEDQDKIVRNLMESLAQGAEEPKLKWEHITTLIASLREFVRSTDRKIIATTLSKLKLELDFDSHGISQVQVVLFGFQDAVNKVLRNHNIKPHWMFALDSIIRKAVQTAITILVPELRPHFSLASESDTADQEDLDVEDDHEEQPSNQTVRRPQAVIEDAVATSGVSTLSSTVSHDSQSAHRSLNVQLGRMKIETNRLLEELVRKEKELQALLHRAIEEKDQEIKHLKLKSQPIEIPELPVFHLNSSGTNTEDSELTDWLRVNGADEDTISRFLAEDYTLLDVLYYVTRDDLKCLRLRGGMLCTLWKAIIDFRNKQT
# experiment.summary: ASK1 Cell Based Assay (phospho p38 read out in hASK1 transfected HEK293T-AP1 cells)
# study.conditions: comparison with Selonsertib; read-out: ASK1 ph. P38 Cell based Assay (IC50)
Your answer should be a plain number; it is taken to be in nM.

Please fill in: IC50 reported for CC(C)n1cnnc1-c1cccc(N2CCN(c3ccc(N4CC(C#N)C4)cc3)C2=O)n1 = 69

Continuing:
Please fill in: IC50 reported for CC(C)n1cnnc1-c1cccc(N2CCN(c3ccc(N4CCOCC4)cc3)C2=O)n1 = 140

Please fill in: IC50 reported for CNC(=O)C1CCN(c2ccc(N3CCN(c4cccc(-c5nncn5C(C)C)n4)C3=O)cc2)CC1 = 15

Please fill in: IC50 reported for CC(C)n1cnnc1-c1cccc(N2CCN(c3ccc(N4CCC(C(=O)N(C)C)CC4)cc3)C2=O)n1 = 102

All values here come from patent US20220332700A1.
